Target: T1, human-CD137 (ELISA antigen of the affinity maturation screen) (human, UniProt Q07011 24-186, limits assumed)
T1 construct: also called human-CD137 ECD
Assay: ELISA of Fab in supernatants after phage panning

Binder	binding result
Clone 9 (Fab in supernatant) (Fab, V domains shown, Screened as Fab in supernatant) VH: QVQLVQSGAEVKKPGASVKVSCKASGFNLKDTYIHWVRQAPGQGLEWMGKIDPANGNTEYAQKFQGRVTMTRDTSTSTVYMELSSLRSEDTAVYYCTTGNLHYALMDYWGQGTSVTVSS VL: DIQMTQSPSSVSASVGDRVTITCKASQAIATYLSWYQQKPGKAPKLLIYRANRMYDGVPSRFSGSGSGTDFTLTISSLQPEDFATYYCLQFDDFPYTFGGGTKLEIKR	binds
